Listed molecules paired with reported Potential conc. considering sorption
- Test system: extracellular wastewater peptidases (pool I extracts from WWTP influents)
- Assay Comment: Absolute quantification of transformation products (TPs) formed during AMP incubation with wastewater extracts
- Type: in vitro ADME
- Study Conditions: maximum TP concentration corrected for sorption to the wastewater matrix
Peptide text beside a SMILES is read from it.
Metric: Potential conc. considering sorption (µg/L)

>  <Molecule>
CC(C)C[C@H](NC(=O)[C@H](Cc1c[nH]c2ccccc12)NC(=O)[C@@H](N)CO)C(=O)N[C@@H](CO)C(=O)O [SWLS (II)] (H-SWLS-OH)

>  <Target Desc>
extracellular wastewater peptidases (pool I extracts from WWTP influents)

>  <Metric>
Potential conc. considering sorption

>  <Units Symbol>
µg/L

>  <Measured>
69.5

$$$$
>  <Molecule>
CC(C)C[C@H](NC(=O)[C@@H](N)Cc1ccccc1)C(=O)NCC(=O)N[C@@H](CCCCN)C(=O)N[C@H](C(=O)N[C@@H](Cc1ccccc1)C(=O)O)C(C)C [FLGKVF (I)] (H-FLGKVF-OH)

>  <Target Desc>
extracellular wastewater peptidases (pool I extracts from WWTP influents)

>  <Metric>
Potential conc. considering sorption

>  <Units Symbol>
µg/L

>  <Measured>
101.9

$$$$
>  <Molecule>
CC(C)C[C@H](NC(=O)[C@H](Cc1c[nH]c2ccccc12)NC(=O)[C@@H](N)CO)C(=O)N[C@@H](CO)C(=O)N[C@@H](CCCCN)C(=O)N[C@H](C(=O)O)[C@@H](C)O [SWLSKT (X)] (H-SWLSKT-OH)

>  <Target Desc>
extracellular wastewater peptidases (pool I extracts from WWTP influents)

>  <Metric>
Potential conc. considering sorption

>  <Units Symbol>
µg/L

>  <Measured>
3.7

$$$$
>  <Molecule>
CC(C)[C@H](NC(=O)[C@H](CCCCN)NC(=O)CNC(=O)[C@H](Cc1ccccc1)NC(=O)[C@@H](NC(=O)[C@H](C)N)C(C)C)C(=O)O [AVFGKV (V)] (H-AVFGKV-OH)

>  <Target Desc>
extracellular wastewater peptidases (pool I extracts from WWTP influents)

>  <Metric>
Potential conc. considering sorption

>  <Units Symbol>
µg/L

>  <Measured>
30.0

$$$$
>  <Molecule>
CC(C)C[C@H](NC(=O)[C@@H](N)Cc1ccccc1)C(=O)NCC(=O)N[C@@H](CCCCN)C(=O)N[C@H](C(=O)O)C(C)C [FLGKV (II)] (H-FLGKV-OH)

>  <Target Desc>
extracellular wastewater peptidases (pool I extracts from WWTP influents)

>  <Metric>
Potential conc. considering sorption

>  <Units Symbol>
µg/L

>  <Measured>
19.5

$$$$

====

- System: extracellular wastewater peptidases (pool I extracts from WWTP influents)
- Assay Comment: Absolute quantification of transformation products (TPs) formed during AMP incubation with wastewater extracts
- Type: in vitro ADME
- Study Conditions: maximum TP concentration during incubation of parent AMP with wastewater extracts; synthetic standards, HPLC-HRMS
Peptide text beside a SMILES is read from it.

>  <Compound>
CC(C)C[C@H](NC(=O)[C@H](Cc1c[nH]c2ccccc12)NC(=O)[C@@H](N)CO)C(=O)N[C@@H](CO)C(=O)N[C@@H](CCCCN)C(=O)N[C@H](C(=O)N[C@@H](C)C(=O)O)[C@@H](C)O [SWLSKTA (VI)] (H-SWLSKTA-OH)

>  <Maximum conc. detected in exp., µg/L>
28.6

$$$$
>  <Compound>
CC(C)[C@H](N)C(=O)N[C@@H](Cc1ccccc1)C(=O)NCC(=O)N[C@@H](CCCCN)C(=O)N[C@H](C(=O)O)C(C)C [VFGKV (VII)] (H-VFGKV-OH)

>  <Maximum conc. detected in exp., µg/L>
32.1

$$$$
>  <Compound>
CC(C)[C@H](NC(=O)[C@H](CCCCN)NC(=O)CNC(=O)[C@H](Cc1ccccc1)NC(=O)[C@@H](NC(=O)[C@H](C)N)C(C)C)C(=O)O [AVFGKV (V)] (H-AVFGKV-OH)

>  <Maximum conc. detected in exp., µg/L>
27.5

$$$$
>  <Compound>
CC(C)C[C@H](NC(=O)[C@@H](N)Cc1ccccc1)C(=O)NCC(=O)N[C@@H](CCCCN)C(=O)N[C@H](C(=O)N[C@@H](Cc1ccccc1)C(=O)O)C(C)C [FLGKVF (I)] (H-FLGKVF-OH)

>  <Maximum conc. detected in exp., µg/L>
78.3

$$$$
>  <Compound>
CC[C@H](C)[C@H](N)C(=O)N[C@@H](CCC(N)=O)C(=O)NCC(=O)NCC(=O)N1CCC[C@H]1C(=O)N[C@@H](CCCNC(=N)N)C(=O)O [IQGGPR (III)] (H-IQGGPR-OH)

>  <Maximum conc. detected in exp., µg/L>
87.8

$$$$
>  <Compound>
CC(C)C[C@H](NC(=O)[C@@H](N)Cc1ccccc1)C(=O)NCC(=O)N[C@@H](CCCCN)C(=O)N[C@H](C(=O)O)C(C)C [FLGKV (II)] (H-FLGKV-OH)

>  <Maximum conc. detected in exp., µg/L>
16.5

$$$$

====

Entries and their Maximum conc. detected in exp.
- Tested on: extracellular wastewater peptidases (pool I extracts from WWTP influents)
- Assay Comment: Absolute quantification of transformation products (TPs) formed during AMP incubation with wastewater extracts
- Type: in vitro ADME
- Study Conditions: maximum TP concentration during incubation of parent AMP with wastewater extracts; synthetic standards, HPLC-HRMS
Peptide text beside a SMILES is read from it.
Metric: Maximum conc. detected in exp.

>  <Compound>
CC[C@H](C)[C@H](NC(=O)[C@H](C)N)C(=O)N[C@@H](CCC(N)=O)C(=O)NCC(=O)NCC(=O)N1CCC[C@H]1C(=O)N[C@@H](CCCNC(=N)N)C(=O)O [AIQGGPR (V)] (H-AIQGGPR-OH)

>  <Metric>
Maximum conc. detected in exp.

>  <Measured>
48.6 µg/L

$$$$
>  <Compound>
CC(C)C[C@H](NC(=O)[C@H](Cc1c[nH]c2ccccc12)NC(=O)[C@@H](N)CO)C(=O)N[C@@H](CO)C(=O)O [SWLS (II)] (H-SWLS-OH)

>  <Metric>
Maximum conc. detected in exp.

>  <Measured>
57.1 µg/L

$$$$
>  <Compound>
CC(C)C[C@H](NC(=O)[C@H](Cc1c[nH]c2ccccc12)NC(=O)[C@@H](N)CO)C(=O)N[C@@H](CO)C(=O)N[C@@H](CCCCN)C(=O)N[C@H](C(=O)O)[C@@H](C)O [SWLSKT (X)] (H-SWLSKT-OH)

>  <Metric>
Maximum conc. detected in exp.

>  <Measured>
2.9 µg/L

$$$$

====

The compounds listed here are annotated with their Potential conc. considering sorption.
- Tested on: extracellular wastewater peptidases (pool I extracts from WWTP influents)
- Assay Comment: Absolute quantification of transformation products (TPs) formed during AMP incubation with wastewater extracts
- Format: in vitro ADME
- Study Conditions: maximum TP concentration corrected for sorption to the wastewater matrix
Peptide text beside a SMILES is read from it.

>  <Compound>
CC[C@H](C)[C@H](NC(=O)[C@H](C)N)C(=O)N[C@@H](CCC(N)=O)C(=O)NCC(=O)NCC(=O)N1CCC[C@H]1C(=O)N[C@@H](CCCNC(=N)N)C(=O)O [AIQGGPR (V)] (H-AIQGGPR-OH)

>  <Potential conc. considering sorption, µg/L>
78.2

$$$$
>  <Compound>
CC(C)C[C@H](NC(=O)[C@H](Cc1c[nH]c2ccccc12)NC(=O)[C@@H](N)CO)C(=O)N[C@@H](CO)C(=O)N[C@@H](CCCCN)C(=O)N[C@H](C(=O)N[C@@H](C)C(=O)O)[C@@H](C)O [SWLSKTA (VI)] (H-SWLSKTA-OH)

>  <Potential conc. considering sorption, µg/L>
36.4

$$$$
>  <Compound>
CC[C@H](C)[C@H](N)C(=O)N[C@@H](CCC(N)=O)C(=O)NCC(=O)NCC(=O)N1CCC[C@H]1C(=O)N[C@@H](CCCNC(=N)N)C(=O)O [IQGGPR (III)] (H-IQGGPR-OH)

>  <Potential conc. considering sorption, µg/L>
124.8

$$$$
>  <Compound>
CC(C)[C@H](N)C(=O)N[C@@H](Cc1ccccc1)C(=O)NCC(=O)N[C@@H](CCCCN)C(=O)N[C@H](C(=O)O)C(C)C [VFGKV (VII)] (H-VFGKV-OH)

>  <Potential conc. considering sorption, µg/L>
47.1

$$$$

====

- Test system: extracellular wastewater peptidases (pool I extracts from WWTP influents)
- Assay Comment: Absolute quantification of transformation products (TPs) formed during AMP incubation with wastewater extracts
- Type: in vitro ADME
- Study Conditions: pool I influent extracts, WWTPs A-D; absolute quantification with synthetic peptide standards; HPLC-HRMS; triplicate incubations
Peptide text beside a SMILES is read from it.
Metric: conversion of spiked parent AMP to the TP during incubation with wastewater extract

>  <Molecule>
CC(C)C[C@H](NC(=O)[C@H](Cc1c[nH]c2ccccc12)NC(=O)[C@@H](N)CO)C(=O)N[C@@H](CO)C(=O)O [SWLS (II)] (H-SWLS-OH)

>  <Measured>
3.7–5.7%

$$$$

Every entry's value here was drawn from paper PMC10785756.
